tested on: ACHN renal; assay: NCI-60 one-dose screen, 48 h (100 = growth as untreated, 0 = no growth, -100 = all killed); conditions: 10 µM unless noted
Compounds without any hit were thinned out: in the full panel of roughly 83,000, 20% have a hit. Activity calls are given as the source filed them. Rule for the calls: active = growth percent below 10; inactive = the rest.
Listing: growth of selected compounds

Below, each entry is followed by its recorded growth result.
In [3]: df
Out[3]:
                                   compound       assay_value
0                Clc1ccc(Cc2nc3ccccc3s2)cc1  98.5% (inactive)
1  Cc1nnc(N/N=C/c2ccc([N+](=O)[O-])o2)[nH]c1=O   -50.8% (active)
2  CN1CCC(CN2c3ccccc3Sc3ccccc32)C1 (stereo unspecified)  86.1% (inactive)
3  CCOc1cc(F)c([N+](=O)[O-])cc1[N+](=O)[O-]  12.7% (inactive)
4  COC(=O)[C@]1(C)CCC[C@]2(C)c3ccc(C(C)C)cc3C(=O)[C@@H](Br)[C@@H]12  92.6% (inactive)

Now examine the next entry.
Value of growth reported for the compound `S=C(S)OCN1CCOCC1` is 100% (inactive)

###

tested on: MDA-MB-231 breast; experiment: NCI-60 one-dose screen, 48 h; settings: 10 µM unless noted
About 83,000 compounds went through this panel and 20% of them were active in at least one assay; those are over-represented in the sample as a whole. Activity calls are given as the source filed them. Rule for the calls: active = growth percent below 10; inactive = the rest.
Response enum: t for active, f for inactive

Here are 3 compounds together with their reported answers.
In [3]: df
Out[3]:
                                   compound  label_class
0  Cc1ccccc1NC(=O)Cc1csc2[n+]1C(=O)/C(=C/c1ccc([N+](=O)[O-])cc1)S2            f
1  Clc1ccc(-n2ncc3c(NCCCN4CCOCC4)ncnc32)cc1            f
2                C/C(=N/NC(N)=S)c1ccc(C)cc1            f

Look up the recorded call for CCCc1cc(=O)oc2c3c(c4c(c12)OC(C)(C)CC4)OC(C)[C@H](C)[C@@H]3O (some centres undefined) in this test. f

Record lookup: outcome of this test for `Oc1ccc(Cl)cc1C(c1cc(Cl)ccc1O)C(Cl)(Cl)Cl` ? t

###

System: SW-620 colon
Experiment: NCI-60 one-dose screen, 48 h (100 = growth as untreated, 0 = no growth, -100 = all killed)
Conditions: 10 µM unless noted
Protocol: Growth inhibition of the SW-620 human tumor cell line is measured as a screen for anti-cancer activity. Cells are grown in 96 well plates and exposed to the test compound for 48 hours. Compounds are tested at a single concentration, which is 10^-5 M for most compounds. The reported endpoint is percent growth (GI% or GIPRCNT), where numbers from 0 - 100% represent growth inhibition, and numbers from -100% - 0 represent cell death. For example, a value of 40 represents 60% growth inhibition. […]
About 83,000 compounds went through this panel and 20% of them were active in at least one assay; those are over-represented in the sample as a whole. Active and inactive are the calls of the source. The calls were made as follows: active = growth percent below 10; inactive = the rest.
Quantity Kind: growth

In [3]: df
Out[3]:
                        compound  quantity_kind      assay_value
0  Nc1cccc2cccc([N+](=O)[O-])c12         growth  106% (inactive)

Measured growth, `Cc1ccc2c(c1)sc(-c1ccc(N(C)C)cc1)[n+]2C` : 12.3% (inactive)

Reported growth for `O=C(NNc1ccccc1)OCc1ccccc1` was 54.3% (inactive)

The compound `CCCCCCCCCCCC[n+]1ccc(CCCCCCCCC)cc1` showed growth equal to -67% (active)

growth recorded for this compound, `CCC(=O)c1cc([N+](=O)[O-])c(Br)s1` , is 35.4% (inactive)

The recorded growth for entry `NCCCN(CCCN)CCCNCc1c2ccccc2c(CNCCCN(CCCN)CCCN)c2ccccc12` equals 100% (inactive)

get_value(item= `S=C(S)OCN1CCOCC1` , readout=growth) returns 74.8% (inactive)

Form: compound = `CC(C)(C)c1ccc(CCO)cc1` ; growth = 114% (inactive)

Given item `C1=C(c2ccccc2)c2ccccc2C1` , the value recorded as its growth is 97.8% (inactive)

Briefly, growth measured for `O=C(OC12CC3CC(CC(C3)C1)C2)c1ccc(NCc2cc(O)ccc2O)cc1` : -53.8% (active)

// field: growth; key: `COc1cc(NC(=O)C2=C(C)NC(C)=C(C(=O)Nc3cc(OC)c(Cl)cc3OC)C2c2cccc([N+](=O)[O-])c2)c(OC)cc1Cl` ; value = 46.4% (inactive)

Recorded growth (compound CCCCCCCCCCCCCCCCCC[S+](C)CC (stereo unspecified) ): 28.1% (inactive)

Recorded growth (compound CCN(CC)CC(O)CNc1ccc(NCC2CO2)c2c1C(=O)c1ccccc1C2=O (stereo unspecified) ): -28.7% (active)

Kindly note the recorded growth for Cc1ccccc1N=C(N)Nc1ccccc1C (tested in a mixture with another compound) , which is 74.9% (inactive)

For reference, reported growth for COc1ccc(C(Cn2ccnc2)Sc2ccc(Cl)c(Cl)c2)cc1 (stereo unspecified) stands at 80.9% (inactive)

// field: growth; key: `O=C1Nc2ccc(Br)cc2C1=O` ; value = 86% (inactive)

Query `CCSc1nc2ccccc2o1` yields growth of 106% (inactive)

Reported growth of `O=C1C=CC(=O)N1c1ccccc1` : 80.9% (inactive)

# growth (compound: `O=C1c2ccccc2C(=O)c2c(O)c(Cl)cc(O)c21` ) is 72.6% (inactive)

Recorded growth (compound `CCOC(=O)c1c(C)[nH]c2ccc(O)cc12` ): 105% (inactive)
